Items are presented alongside their recorded Change in Blood Glucose, 1 Hour.
- Assay name: Hypoglycaemic activity: change in blood glucose after oral gavage
- Type: in vivo, Sprague Dawley rats
- Stated conditions: 1.6 mg/kg oral gavage, normal fed male rats, 1 hour
Write the number in mmol/L without appending the unit.

Some solved entries appear below for comparison.
{"columns": ["Compound", "Change in Blood Glucose, 1 Hour / mmol/L"],
 "data": [
  ["COc1ccc(Cl)cc1C(=O)NCCc1ccc(S(=O)(=O)NC(=O)NC2CCCCC2)cc1 [Glibenclamide, reference compound]", 0.6],
  ["CCOc1cccc(NC(=S)NS(=O)(=O)c2ccc(C)cc2)n1", 0.5],
  ["Cc1ccc(S(=O)(=O)NC(=O)Nc2nc(C)cc(C)n2)cc1 [Compound of Example 1, reference compound]", -0.8],
  ["Cc1ccc(S(=O)(=O)NC(=S)Nc2cccc(Br)n2)cc1", -0.9],
  ["Cc1ccc(S(=O)(=O)NC(=S)Nc2nc(C)cc(C)n2)cc1", -1.1]
]}

Query block: Any idea what its Change in Blood Glucose, 1 Hour is? The compound is `Cc1ccc(S(=O)(=O)NC(=S)Nc2ccncc2)cc1`
Result block: -1.0

Origin of values: patent US5929082A
